B1: CPEB3 Ribozyme (parent)
chain: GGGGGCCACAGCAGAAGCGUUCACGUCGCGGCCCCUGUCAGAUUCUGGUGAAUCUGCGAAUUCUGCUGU

# Variants of: B1
# assay_comment: self-cleavage, relative activity (ratio to wild type); higher = more cleavage; co-transcriptional
Classification field: label 1 = self-cleavage at or over 0.4; label 0 = self-cleavage under 0.4.

{"alteration": "U44G G47C", "label": "label 1"}
{"alteration": "G1C A23C", "label": "label 0"}
{"alteration": "A23G G41C", "label": "label 1"}
{"alteration": "G37C C66G", "label": "label 0"}
{"alteration": "A16G U62A", "label": "label 1"}
{"alteration": "C7U U36C", "label": "label 1"}
{"alteration": "C54U", "label": "label 1"}
{"alteration": "C6G U53C", "label": "label 0"}
{"alteration": "C22G C66A", "label": "label 0"}
{"alteration": "G41U G47C", "label": "label 1"}
{"alteration": "G17U C35G", "label": "label 0"}
{"alteration": "U36C U62G", "label": "label 1"}
{"alteration": "G3U U61A", "label": "label 0"}
{"alteration": "G1U C6U", "label": "label 0"}
{"alteration": "G3C G41U", "label": "label 0"}
{"alteration": "G3A A42C", "label": "label 0"}
{"alteration": "A40G U49G", "label": "label 1"}
{"alteration": "G48C G65U", "label": "label 1"}
{"alteration": "G19C C66U", "label": "label 0"}
{"alteration": "A23C G30C", "label": "label 1"}
{"alteration": "U49C U55C", "label": "label 1"}
{"alteration": "A52U", "label": "label 1"}
{"alteration": "C7U U62C", "label": "label 1"}
{"alteration": "G2U U43G", "label": "label 0"}
{"alteration": "C7G G48A", "label": "label 1"}
{"alteration": "C24A A60C", "label": "label 0"}
{"alteration": "U43C G50A", "label": "label 1"}
{"alteration": "G37C G68C", "label": "label 0"}
{"alteration": "C24G G41C", "label": "label 0"}
{"alteration": "G14U C57G", "label": "label 0"}
{"alteration": "U36A C63U", "label": "label 0"}
{"alteration": "G14U C18U", "label": "label 0"}
{"alteration": "G37U U61G", "label": "label 0"}
{"alteration": "A13C C39U", "label": "label 1"}
{"alteration": "G11A C24A", "label": "label 0"}
{"alteration": "G25A U44G", "label": "label 0"}
{"alteration": "A52U U61A", "label": "label 1"}
{"alteration": "G14C C45U", "label": "label 1"}
{"alteration": "C39A C63U", "label": "label 1"}
{"alteration": "C22A G30C", "label": "label 0"}
{"alteration": "G4U C6G", "label": "label 0"}
{"alteration": "G48A G50U", "label": "label 1"}
{"alteration": "A15G C29G", "label": "label 1"}
{"alteration": "A10U G41U", "label": "label 1"}
{"alteration": "C18G U67C", "label": "label 0"}
{"alteration": "U49A C66G", "label": "label 1"}
{"alteration": "U46A U62C", "label": "label 1"}
{"alteration": "C32G C54G", "label": "label 0"}
{"alteration": "A51U U61G", "label": "label 1"}
{"alteration": "G37U G68A", "label": "label 1"}
{"alteration": "U36A A52G", "label": "label 0"}
{"alteration": "G17U A42C", "label": "label 0"}
{"alteration": "U38A A40U", "label": "label 1"}
{"alteration": "G14A U62G", "label": "label 1"}
{"alteration": "G14A U67C", "label": "label 1"}
{"alteration": "C24G G50U", "label": "label 1"}
{"alteration": "A15U A16C", "label": "label 0"}
{"alteration": "A8G G41C", "label": "label 0"}
{"alteration": "C35U G41C", "label": "label 1"}
{"alteration": "A15C A59C", "label": "label 0"}
{"alteration": "C18A C22G", "label": "label 0"}
{"alteration": "A23U G31C", "label": "label 0"}
{"alteration": "G48U U49C", "label": "label 1"}
{"alteration": "G17A C45A", "label": "label 0"}
{"alteration": "A52C G65U", "label": "label 1"}
{"alteration": "G25C G30C", "label": "label 0"}
{"alteration": "A15U A16U", "label": "label 1"}
{"alteration": "U46A U61C", "label": "label 1"}
{"alteration": "C39U G47C", "label": "label 1"}
{"alteration": "G50U A51G", "label": "label 1"}
{"alteration": "A51G G65C", "label": "label 1"}
{"alteration": "G58U U61G", "label": "label 1"}
{"alteration": "C7A U67C", "label": "label 1"}
{"alteration": "A13U A52C", "label": "label 1"}
{"alteration": "A40U C57G", "label": "label 0"}
{"alteration": "G2A G47A", "label": "label 0"}
{"alteration": "C39U A52U", "label": "label 1"}
{"alteration": "C24U U67G", "label": "label 1"}
{"alteration": "G14C U64A", "label": "label 1"}
{"alteration": "C45A", "label": "label 1"}
{"alteration": "G48A A52C", "label": "label 1"}
{"alteration": "G17C C45G", "label": "label 0"}
{"alteration": "G2U C27U", "label": "label 0"}
{"alteration": "C6A A40C", "label": "label 0"}
{"alteration": "A8C G30C", "label": "label 1"}
{"alteration": "G1C G17C", "label": "label 0"}
{"alteration": "G4A C9A", "label": "label 1"}
